experiment: H1N1 influenza NS1A inhibitors, functional cell based assay (AID 504329); settings: percent inhibition, at 12.5 µM, hits give high values
About 1,000 (0.29%) of roughly 340,000 compounds were called active. These entries were drawn from the full list. Results with a measured potency or affinity are listed apart.
Examples of compounds with documented inhibition follow.
Property label: inhibition (%)

| Smiles structure | Readout number |
| --- | --- |
| Cc1cc2ccccn2c1C(=O)c1cccc([N+](=O)[O-])c1 | 4.98 |
| CC(C)n1nnnc1SCC(=O)NNC(=O)C1CCCCC1 | -0.25 |
| COC(=O)c1cc(C(=O)c2c(C)cc3ccccn23)cc([N+](=O)[O-])c1 | 16.9 |
| CC1=NN(c2ccccc2)C(=O)/C1=C/c1cccc(C)c1 | -0.71 |
| CC(C)Cc1nc(Cl)c(C#N)c2c1CCCC2 | 0.11 |
| Cc1cccc(OCC(=O)NCC(=O)N/N=C/c2cc(Br)ccc2OCc2ccccc2)c1 | 9.61 |
